- Target Under Test: UniProtKB P33535
- Experiment Summary: Opioid receptor mu 1 affinity against the receptor site model site 1 (mu1) by using the curve-fitting program LIGAND
Measurement Label: Kd (nM)

C=CCN1CCCC(C)(c2cccc(O)c2)C1 (single isomer, unassigned; (+))
100
CN1CCCC(C)(c2cccc(O)c2)C1 (stereo in doubt; (-)-7a)
114

###

- Target Under Test: Delta-type opioid receptor (Rattus norvegicus, UniProt P33533)
- Sequence (P33533 whole entry): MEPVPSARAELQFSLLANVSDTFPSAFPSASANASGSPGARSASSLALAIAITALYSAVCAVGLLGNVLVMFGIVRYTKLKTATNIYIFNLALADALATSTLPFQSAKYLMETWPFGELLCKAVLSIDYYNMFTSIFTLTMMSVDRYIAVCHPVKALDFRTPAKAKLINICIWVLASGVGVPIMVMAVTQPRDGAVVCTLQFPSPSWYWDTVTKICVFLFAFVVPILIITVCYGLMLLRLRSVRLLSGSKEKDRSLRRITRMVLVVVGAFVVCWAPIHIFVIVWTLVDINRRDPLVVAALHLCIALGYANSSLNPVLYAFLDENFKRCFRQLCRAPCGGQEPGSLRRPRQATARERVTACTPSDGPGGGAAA
- Experiment Summary: Affinity against the Opioid receptor delta 1
pKd: −log10 of the molar value.
Measurement Label: pKd

CCC1C2C(=O)c3ccc(O)cc3C1(C)CCN2CC1CC1 (stereo unspecified)
7.85

###

Please consider the recorded Kd for UniProt:P34975 in what follows.
Sequence (P34975 whole entry): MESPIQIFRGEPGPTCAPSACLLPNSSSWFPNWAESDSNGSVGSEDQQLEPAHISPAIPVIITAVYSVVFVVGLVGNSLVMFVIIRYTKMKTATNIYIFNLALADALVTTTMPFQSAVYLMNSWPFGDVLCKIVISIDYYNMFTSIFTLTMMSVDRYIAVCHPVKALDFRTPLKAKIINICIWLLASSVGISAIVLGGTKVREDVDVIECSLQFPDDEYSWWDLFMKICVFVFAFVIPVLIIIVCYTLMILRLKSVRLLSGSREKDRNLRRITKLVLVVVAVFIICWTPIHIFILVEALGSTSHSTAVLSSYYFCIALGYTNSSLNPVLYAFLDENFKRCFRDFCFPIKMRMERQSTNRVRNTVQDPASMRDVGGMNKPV
Measurement Label: Kd (nM)

C=CCN1CCCC(C)(c2cccc(O)c2)C1 (single isomer, unassigned; (+))
137
CN1CCCC(C)(c2cccc(O)c2)C1 (stereo in doubt; (-)-7a)
625
C=CCN1CCCC(C)(c2cccc(O)c2)C1 (single isomer, unassigned; (-))
370
CC1(c2cccc(O)c2)CCCN(CCc2ccccc2)C1 (single isomer, unassigned; (-))
625
CC1(c2cccc(O)c2)CCCN(CCc2ccccc2)C1 (stereo in doubt; (+)-7d)
179
CN1CCCC(C)(c2cccc(O)c2)C1 (stereo in doubt; (+)-7a)
714

###

- Target Under Test: Opioid receptor (Rattus norvegicus, UniProt P33533+P34975+P33535)
- Experiment Summary: Opioid receptor affinity against the receptor site model site 5 by using the curve-fitting program LIGAND
- Assay type: protein assay
Measurement Label: Kd (µM)

CN1CCCC(C)(c2cccc(O)c2)C1 (stereo in doubt; (-)-7a)
8.33
CC1(c2cccc(O)c2)CCCN(CCc2ccccc2)C1 (single isomer, unassigned; (-))
1.39
C=CCN1CCCC(C)(c2cccc(O)c2)C1 (single isomer, unassigned; (-))
1.72
C=CCN1CCCC(C)(c2cccc(O)c2)C1 (single isomer, unassigned; (+))
3.7
CN1CCCC(C)(c2cccc(O)c2)C1 (stereo in doubt; (+)-7a)
19.2
CC1(c2cccc(O)c2)CCCN(CCc2ccccc2)C1 (stereo in doubt; (+)-7d)
26.3

###

Listing: Kd of selected molecules
- Target Under Test: Mu-type opioid receptor (Rattus norvegicus, UniProt P33535)
- Sequence (P33535 whole entry): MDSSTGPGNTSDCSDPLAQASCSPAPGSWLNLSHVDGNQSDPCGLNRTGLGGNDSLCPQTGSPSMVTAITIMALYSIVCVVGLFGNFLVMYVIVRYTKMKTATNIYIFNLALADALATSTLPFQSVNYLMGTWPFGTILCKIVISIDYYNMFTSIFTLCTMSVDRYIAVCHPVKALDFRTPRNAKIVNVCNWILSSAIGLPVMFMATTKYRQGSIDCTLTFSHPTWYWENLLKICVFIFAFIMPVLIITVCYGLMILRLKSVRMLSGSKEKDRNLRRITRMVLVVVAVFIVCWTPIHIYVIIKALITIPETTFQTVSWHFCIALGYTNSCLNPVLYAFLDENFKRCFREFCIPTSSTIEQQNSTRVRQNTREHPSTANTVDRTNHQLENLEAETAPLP
- Experiment Summary: Mu2 opioid receptor affinity against the receptor site model site 2 (mu2) by using the curve-fitting program LIGAND
Measurement Label: Kd (nM)

C=CCN1CCCC(C)(c2cccc(O)c2)C1 (single isomer, unassigned; (-))
110
CN1CCCC(C)(c2cccc(O)c2)C1 (stereo in doubt; (-)-7a)
1170
CC1(c2cccc(O)c2)CCCN(CCc2ccccc2)C1 (stereo in doubt; (+)-7d)
6.2
C=CCN1CCCC(C)(c2cccc(O)c2)C1 (single isomer, unassigned; (+))
370
CC1(c2cccc(O)c2)CCCN(CCc2ccccc2)C1 (single isomer, unassigned; (-))
130
CN1CCCC(C)(c2cccc(O)c2)C1 (stereo in doubt; (+)-7a)
1000

###

- Target Under Test: Delta-type opioid receptor (Rattus norvegicus)
- Experiment Summary: Opioid receptor affinity against the Opioid receptor delta 1 by using the curve-fitting program LIGAND
pKd: −log10 of the molar value.
Each entry gets False if its pKd stays under 5, and True if its pKd is 5 or above.

CC1(c2cccc(O)c2)CCCN(CCc2ccccc2)C1 (stereo in doubt; (+)-7d)
True
C=CCN1CCCC(C)(c2cccc(O)c2)C1 (single isomer, unassigned; (+))
True
CC1(c2cccc(O)c2)CCCN(CCc2ccccc2)C1 (single isomer, unassigned; (-))
True
C=CCN1CCCC(C)(c2cccc(O)c2)C1 (single isomer, unassigned; (-))
True
CN1CCCC(C)(c2cccc(O)c2)C1 (stereo in doubt; (+)-7a)
False
CN1CCCC(C)(c2cccc(O)c2)C1 (stereo in doubt; (-)-7a)
False
